- Test system: PRKACA-PRKAR2A interaction (SmBiT-PRKACA / LgBiT-PRKAR2A), protein kinase A
- Set-up: NanoLuc complementation counter-screen in cell extract, PRKACA with PRKAR2A, loss of luminescence, detects NanoLuc interference
- details: counter-screen for NanoLuc interference; 0.5 h, 20 µM; inhibitor
Counter-ions that a name gives are not always drawn.
propertyMeasured: Inh (PKA) (%)
Could you give me the number in %? Just the number is fine.

- compound: "C[C@@H]1C[C@H]2[C@@H]3CCC4=CC(=O)C=C[C@]4(C)[C@@]3(F)[C@@H](O)C[C@]2(C)[C@@]1(O)C(=O)CO"
  targetUnderTest: "PRKACA-PRKAR2A interaction (SmBiT-PRKACA / LgBiT-PRKAR2A), protein kinase A"
  valueUnits: "%"
  Inh (PKA): 0.4412
- compound: "CC1(C)CCC2=C(O1)c1ccccc1C(=O)C2=O"
  targetUnderTest: "PRKACA-PRKAR2A interaction (SmBiT-PRKACA / LgBiT-PRKAR2A), protein kinase A"
  valueUnits: "%"
  Inh (PKA): 9.4

Q: # value lookup — system PRKACA-PRKAR2A interaction (SmBiT-PRKACA / LgBiT-PRKAR2A), protein kinase A, readout Inh (PKA), item N=C1CCCN1Cc1[nH]c(=O)[nH]c(=O)c1Cl [UM0141639:01, Tipiracil hydrochloride]
Ans: 0.165
